# Tested on: ACHN
# PROCEDURE TEXT: NCI tumour cell line growth inhibition, 48 h
Calls of active or inactive are those of the source. Rule as the data show it: active = GI50 up to about 1.1 µM and inactive = higher.
Can you answer with just one of these options? active, inactive

Sample answers from the record:
[
  {
    "COMPOUND": "[N-]=[N+]=NC1CC(n2cc(COCC(F)(F)F)c(=O)[nH]c2=O)OC1CO (stereo not drawn)",
    "QUALITATIVE LABEL": "inactive"
  },
  {
    "COMPOUND": "O=S(=O)(O)CCCC1S(=O)(=O)OCCOS1(=O)=O",
    "QUALITATIVE LABEL": "inactive"
  },
  {
    "COMPOUND": "CC(=O)OC/C=C\\Cn1ncc(=O)[nH]c1=O",
    "QUALITATIVE LABEL": "inactive"
  },
  {
    "COMPOUND": "Cc1ccccc1NC(=O)CC(=O)n1nc(-c2ccccc2)c(/N=N/c2ccc([N+](=O)[O-])cc2)c1-c1ccccc1",
    "QUALITATIVE LABEL": "inactive"
  },
  {
    "COMPOUND": "Cc1cn(Cc2cccc(C3=NCCCN3)c2)c(=O)n(Cc2cccc(C3=NCCCN3)c2)c1=O",
    "QUALITATIVE LABEL": "inactive"
  },
  {
    "COMPOUND": "C[n+]1cccc2ccc3cccnc3c21",
    "QUALITATIVE LABEL": "inactive"
  },
  {
    "COMPOUND": "COc1ccc([C@@H]2CC(=O)N2)cc1",
    "QUALITATIVE LABEL": "inactive"
  },
  {
    "COMPOUND": "N/C(=N\\N=C\\c1c[nH]c2ccccc12)Nc1ccccc1",
    "QUALITATIVE LABEL": "active"
  },
  {
    "COMPOUND": "COc1cc2nc(-c3ccccc3)cc(O)c2c(OC)c1OC",
    "QUALITATIVE LABEL": "inactive"
  },
  {
    "COMPOUND": "O=C(O)c1cc(O)c2c(c1)Cc1cccc(O)c1C2=O",
    "QUALITATIVE LABEL": "inactive"
  }
]

QUERY: Call for entry CC(C)C1=C(Cc2ccccc2)C(=O)O/C1=C\c1ccc(O)c(Cl)c1 :
RESULT: inactive

QUERY: How did this test come out for Cc1ccc2nc(-c3ccc(N)c(I)c3)sc2c1 ?
RESULT: inactive

QUERY: Assay result, entry O=C1CCN2c3ccccc3[C@H]3Cc4cccc(c4[C@@H]2C3)CCO1 — outcome?
RESULT: inactive

QUERY: Assay result, entry COc1c(-c2nc3ccc(N4CCN(C)CC4)nc3[nH]2)cc(OC)c2[nH]c(CO)nc12 — outcome?
RESULT: inactive

QUERY: Fill in: this test's call for CCOC(=O)c1c(N2CCOCC2)[nH]c(=O)c(C(c2ccc(N(C)C)cc2)c2c(O)c(C(=O)OCC)c(N3CCOCC3)[nH]c2=O)c1O is ___
RESULT: inactive

QUERY: // return assay outcome for COC(=O)c1ccccc1NC(=O)C(=O)NNC(=O)c1ccncc1
RESULT: inactive

QUERY: Short answer needed: outcome of this test for COC(=O)c1cc(OC(C)=O)c2c(OC)ccc(OC)c2c1 ?
RESULT: inactive

QUERY: # outcome recorded in this test, key = CC(CCC(=O)O)C(=O)O (stereo not drawn)
RESULT: inactive

QUERY: // outcome(item) with item = CC(C)=C1C2CC3(C)CCC2(C)CCC13.CC1=CCC2C3(C)CCC2(C(C)C)C1C3 (stereo not drawn)
RESULT: inactive

QUERY: Identify the outcome logged in this assay for the compound shown: N#C/C(=C\c1cc(Cl)cc(Cl)c1)c1ccccn1
RESULT: inactive

QUERY: Hello, I am checking results. What call was entered for O=S(=O)(O)c1ccc2cccc(/N=N\c3c(O)ccc4ccccc34)c2c1 ?
RESULT: inactive

QUERY: So what was the verdict on CC(=O)O[C@H]1C(=O)[C@@]2(C)[C@H]([C@H](OC(=O)c3ccccc3)[C@]3(O)C[C@H](OC(=O)[C@H](O)[C@@H](NC(=O)c4ccccc4)c4ccc5ccccc5c4)C(C)=C1C3(C)C)[C@]1(OC(C)=O)CO[C@@H]1C[C@@H]2O in this test?
RESULT: inactive

QUERY: How did this test come out for O=c1oc2ccc3ccccc3c2cc1-c1nc2ccccc2o1 ?
RESULT: inactive

QUERY: // outcome(item) with item = CCCCCCCCCCCCCCCC(=O)Nc1ccn(C2CC(OP(=O)(O)OCC3OC(n4cc(F)c(=O)[nH]c4=O)CC3OC(C)=O)C(CO)O2)c(=O)n1 (stereo not drawn)
RESULT: active

QUERY: Called result for COC(=O)/C=C(\C)CCC1SC1(C)C (stereo not drawn)
RESULT: inactive

QUERY: Which outcome was assigned to NS(=O)(=O)c1nnc(/N=C(/CCC(=O)O)C(=O)O)s1 in this test?
RESULT: inactive

QUERY: Call for entry O=CCCn1[nH]c(=O)ccc1=O :
RESULT: inactive

QUERY: Hi, sorry to bother you, what did the test record for CCOP(=O)(/C=C\n1ccc(=O)[nH]c1=O)OCC ?
RESULT: inactive

QUERY: Recorded test outcome, item O=C(Nc1ccccc1Br)c1cccc([N+](=O)[O-])c1O
RESULT: inactive

QUERY: Give the logged outcome of this assay for the following compound: COc1cc2nc3c(=C(C#N)C#N)c4ccccc4n3c(=O)c2cc1OC
RESULT: inactive
